Biological target: CRBN (Homo sapiens)
Sequence (Q96SW2 whole entry): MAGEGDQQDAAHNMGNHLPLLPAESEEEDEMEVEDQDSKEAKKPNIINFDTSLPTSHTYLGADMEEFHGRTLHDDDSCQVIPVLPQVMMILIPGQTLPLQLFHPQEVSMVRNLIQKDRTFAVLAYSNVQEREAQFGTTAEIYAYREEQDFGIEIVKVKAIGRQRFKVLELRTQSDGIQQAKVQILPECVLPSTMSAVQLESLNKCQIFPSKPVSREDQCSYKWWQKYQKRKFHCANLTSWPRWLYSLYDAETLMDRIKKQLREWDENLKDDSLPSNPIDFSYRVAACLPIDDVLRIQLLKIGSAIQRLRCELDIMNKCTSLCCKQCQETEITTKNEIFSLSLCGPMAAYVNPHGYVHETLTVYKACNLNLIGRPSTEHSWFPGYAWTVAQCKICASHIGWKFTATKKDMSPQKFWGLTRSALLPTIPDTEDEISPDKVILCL
Assay: Immunoblotting (western blot) quantification of CRBN levels in MM.1S cells
Settings: MM1.S, 16 h, read-out: %remaining protein CRBN
readout name: remaining activity at 0.1 µM (%)
Report only the number, with the unit % understood.

The cases that follow already have their remaining activity at 0.1 µM on record.
* CN[C@@H](C)C(=O)N[C@H](C(=O)N1C[C@@H](Oc2cccc(OCCCCCNc3cccc4c3C(=O)N(C3CCC(=O)NC3=O)C4=O)c2)C[C@H]1C(=O)N[C@@H]1CCCc2ccccc21)C1CCCCC1 (stereo partly shown) [PROTAC 20] | 95
* CN[C@@H](C)C(=O)N[C@H](C(=O)N1C[C@@H](Oc2ccccc2)C[C@H]1C(=O)N[C@@H]1CCCc2ccccc21)C1CCCCC1 [CST530, reference compound] | 95
* CN[C@@H](C)C(=O)N[C@H](C(=O)N1C[C@@H](Oc2cccc(OCCCCCOCCCCCOCCCCCCNc3cccc4c3C(=O)N(C3CCC(=O)NC3=O)C4=O)c2)C[C@H]1C(=O)N[C@@H]1CCCc2ccccc21)C1CCCCC1 (stereo partly shown) [PROTAC 26] | 95

stdin: Query remaining activity at 0.1 µM for CN[C@@H](C)C(=O)N[C@H](C(=O)N1C[C@@H](Oc2cccc(OCCCCOCCCCNc3cccc4c3C(=O)N(C3CCC(=O)NC3=O)C4=O)c2)C[C@H]1C(=O)N[C@@H]1CCCc2ccccc21)C1CCCCC1 (stereo partly shown) [PROTAC 22]
stdout: 77
